Biological target: Human IP6K1 (Homo sapiens, UniProt Q92551)
Construct: GST (N, cleaved yes); made in house; host or cells: C43 E. coli, pGEX-6P-2
Sequence (Q92551 whole entry): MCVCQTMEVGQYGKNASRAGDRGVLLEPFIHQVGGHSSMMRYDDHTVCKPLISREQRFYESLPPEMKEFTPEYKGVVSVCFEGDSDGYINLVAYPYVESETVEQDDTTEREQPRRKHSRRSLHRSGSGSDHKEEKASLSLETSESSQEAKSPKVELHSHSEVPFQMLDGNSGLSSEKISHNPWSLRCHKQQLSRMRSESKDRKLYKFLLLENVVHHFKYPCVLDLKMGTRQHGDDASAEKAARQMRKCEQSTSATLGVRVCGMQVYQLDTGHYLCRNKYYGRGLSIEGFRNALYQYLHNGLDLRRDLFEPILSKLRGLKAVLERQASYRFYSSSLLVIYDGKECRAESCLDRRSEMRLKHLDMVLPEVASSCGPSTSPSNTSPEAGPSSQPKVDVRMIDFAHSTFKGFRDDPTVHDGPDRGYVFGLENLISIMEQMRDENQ
Test: IP6K1 high-throughput screen of the Sigma LOPAC (ADP-Glo Max, single point);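 also: final compound concentration 10µM in 5% DMSO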
Assay type: biochemical
Settings: LOPAC single-point screen; Z-score from raw signal with plate average and StDev
endpointName: Z-score
Lab note: write the figure by itself, no unit.

Consider the worked cases shown below.
Find the measured Z-score of CCCCCC(O)CCCC(=O)O.[Na] (stereo not shown) [5-hydroxydecanoic acid sodium] and report it.
-0.3518

Find the measured Z-score of Cc1cn([C@H]2C=C[C@@H](CO)O2)c(=O)[nH]c1=O [2 ,3 -didehydro-3 -deoxythymidine] and report it.
-0.1432

Find the measured Z-score of [N-]=[N+]=Nc1ccc(C(=O)CSC[C@H](NC(=O)CC[C@H](N)C(=O)O)C(=O)NCC(=O)O)cc1 and report it.
-0.1226

Find the measured Z-score of NCCCCCCCCCCN and report it.
-0.1121

Continuing:
Find the measured Z-score of CC(C)(C)c1ccc(C(O)CCCN2CCC(C(O)(c3ccccc3)c3ccccc3)CC2)cc1 (stereo not shown) and report it.
-0.4076

Find the measured Z-score of CCN(CCCl)Cc1ccccc1Br.Cl [DSP-4 hydrochloride] and report it.
-0.1281

Find the measured Z-score of CC[C@H](C)[C@H]1O[C@]2(CC[C@@H]1C)C[C@@H]1C[C@@H](C/C=C(\C)[C@@H](O[C@H]3C[C@H](OC)[C@@H](O[C@H]4C[C@H](OC)[C@@H](O)[C@H](C)O4)[C@H](C)O3)[C@@H](C)/C=C/C=C3\CO[C@@H]4[C@H](O)C(C)=C[C@@H](C(=O)O1)[C@]34O)O2 and report it.
-0.4479

Find the measured Z-score of CCCCCCC(C)(C)c1ccc([C@@H]2C[C@H](O)CC[C@H]2CCCO)c(O)c1 and report it.
-0.4322

Find the measured Z-score of COc1ccc2c(c1)c(CC(=O)O)c(C)n2Cc1ccc(F)cc1 and report it.
-0.1292
